- System: C. albicans
- protocol summary: In vitro antifungal assay (zone of inhibition, MIC)
- Type: cell-based, Candida albicans
- conditions used: C. albicans
parameter: Minimum inhibitory concentration (MIC); head: IC50 VALUES
In your response, the unit should come after the numeric value.

[C-]#[O+].[Cl][RuH].c1ccc(P(c2ccccc2)c2ccccc2)cc1.c1ccc(P(c2ccccc2)c2ccccc2)cc1.c1ccc(P(c2ccccc2)c2ccccc2)cc1 [[RuHClCO(PPh3)3], reference compound] : 26.09 ± 0.48 µM

Please turn your attention to the following entry.
Reported Minimum inhibitory concentration (MIC); head: IC50 VALUES, molecule COc1ccc2[c]3c(c(=O)oc2c1)C(C)=[N+]1N=C(N)[S][Ru-4]31([C]#[O+])([P+](c1ccccc1)(c1ccccc1)c1ccccc1)[P+](c1ccccc1)(c1ccccc1)c1ccccc1 [Complex 1, [Ru(7MAC-tsc)(CO)(PPh3)2]] : ____ 15.19 ± 0.15 µM

---

- tgt: HSA (Homo sapiens)
- Construct: purchased HiMedia (Mumbai, India)
- Sequence (P02768 25-609): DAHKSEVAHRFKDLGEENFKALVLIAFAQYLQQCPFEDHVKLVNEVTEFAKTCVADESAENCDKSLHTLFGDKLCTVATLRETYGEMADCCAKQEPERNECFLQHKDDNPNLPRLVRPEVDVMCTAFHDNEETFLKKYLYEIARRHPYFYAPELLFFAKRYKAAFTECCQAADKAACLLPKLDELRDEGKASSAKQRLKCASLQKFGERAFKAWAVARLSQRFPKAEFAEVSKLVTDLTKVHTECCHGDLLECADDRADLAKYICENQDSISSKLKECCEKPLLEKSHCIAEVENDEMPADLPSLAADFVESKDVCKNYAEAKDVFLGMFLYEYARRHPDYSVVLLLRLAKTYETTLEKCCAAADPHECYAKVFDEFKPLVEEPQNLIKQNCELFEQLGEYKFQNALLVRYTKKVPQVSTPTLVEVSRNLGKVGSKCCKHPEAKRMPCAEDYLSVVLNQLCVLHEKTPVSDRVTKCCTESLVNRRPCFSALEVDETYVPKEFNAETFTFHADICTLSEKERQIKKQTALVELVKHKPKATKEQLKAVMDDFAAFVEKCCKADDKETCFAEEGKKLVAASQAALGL
- protocol summary: HSA tryptophan fluorescence quenching
- Type: binding
- conditions used: HSA, Scatchard equation
parameter: Binding constant Kbin

Use these answered entries as a reference point.
CNC1=N[N+]2=C(C)c3[c](c4ccc(OC)cc4oc3=O)[Ru-4]2([C]#[O+])([P+](c2ccccc2)(c2ccccc2)c2ccccc2)([P+](c2ccccc2)(c2ccccc2)c2ccccc2)[S]1 [Complex 2, [Ru(7MAC-mtsc)(CO)(PPh3)2]] : 6.341 ± 0.039 × 10^4 M^−1
COc1ccc2[c]3c(c(=O)oc2c1)C(C)=[N+]1N=C(N)[S][Ru-4]31([C]#[O+])([P+](c1ccccc1)(c1ccccc1)c1ccccc1)[P+](c1ccccc1)(c1ccccc1)c1ccccc1 [Complex 1, [Ru(7MAC-tsc)(CO)(PPh3)2]] : 2.273 ± 0.017 × 10^4 M^−1
CCNC1=N[N+]2=C(C)c3[c](c4ccc(OC)cc4oc3=O)[Ru-4]2([C]#[O+])([P+](c2ccccc2)(c2ccccc2)c2ccccc2)([P+](c2ccccc2)(c2ccccc2)c2ccccc2)[S]1 [Complex 3, [Ru(7MAC-etsc)(CO)(PPh3)2]] : 7.194 ± 0.041 × 10^4 M^−1

Next up:
Observed Binding constant Kbin on HSA (Homo sapiens) for COc1ccc2[c]3c(c(=O)oc2c1)C(C)=[N+]1N=C(Nc2ccccc2)[S][Ru-4]31([C]#[O+])([P+](c1ccccc1)(c1ccccc1)c1ccccc1)[P+](c1ccccc1)(c1ccccc1)c1ccccc1 [Complex 4, [Ru(7MAC-ptsc)(CO)(PPh3)2]] , please. 0.297 ± 0.024 × 10^4 M^−1

---

- tgt: HSA (Homo sapiens)
- Construct: purchased HiMedia (Mumbai, India)
- protocol summary: HSA tryptophan fluorescence quenching
- Type: binding
- conditions used: HSA
- Method: The obtained results confirmed the interaction of the ligands and complexes with serum albumins. The absorption spectra of the serum albumins in the absence and presence of ligands H2L^1–4 and the complexes 1–4 are given in Fig. S29 in the ESI. ^† On adding ligands and complexes 1–4 to albumins, the absorbance intensity of serum albumins was decreased with a red shift of 2 nm. […] Furthermore, the equilibrium binding constant and number of binding sites were evaluated by using the Scatchard equation. […]
Some compounds, each annotated with its measured Quenching constant kq.

Consider the reported Quenching constant kq for these compounds:
COc1ccc2[c]3c(c(=O)oc2c1)C(C)=[N+]1N=C(N)[S][Ru-4]31([C]#[O+])([P+](c1ccccc1)(c1ccccc1)c1ccccc1)[P+](c1ccccc1)(c1ccccc1)c1ccccc1 [Complex 1, [Ru(7MAC-tsc)(CO)(PPh3)2]] : 0.741 ± 0.010 × 10^12 M^−1 s^−1
CCNC1=N[N+]2=C(C)c3[c](c4ccc(OC)cc4oc3=O)[Ru-4]2([C]#[O+])([P+](c2ccccc2)(c2ccccc2)c2ccccc2)([P+](c2ccccc2)(c2ccccc2)c2ccccc2)[S]1 [Complex 3, [Ru(7MAC-etsc)(CO)(PPh3)2]] : 1.189 ± 0.030 × 10^12 M^−1 s^−1
COc1ccc2[c]3c(c(=O)oc2c1)C(C)=[N+]1N=C(Nc2ccccc2)[S][Ru-4]31([C]#[O+])([P+](c1ccccc1)(c1ccccc1)c1ccccc1)[P+](c1ccccc1)(c1ccccc1)c1ccccc1 [Complex 4, [Ru(7MAC-ptsc)(CO)(PPh3)2]] : 0.675 ± 0.008 × 10^12 M^−1 s^−1

Lab note: need Quenching constant kq for CNC1=N[N+]2=C(C)c3[c](c4ccc(OC)cc4oc3=O)[Ru-4]2([C]#[O+])([P+](c2ccccc2)(c2ccccc2)c2ccccc2)([P+](c2ccccc2)(c2ccccc2)c2ccccc2)[S]1 [Complex 2, [Ru(7MAC-mtsc)(CO)(PPh3)2]] on HSA (Homo sapiens), anyone have it? 1.088 ± 0.030 × 10^12 M^−1 s^−1
